Molecular target: G/T mismatch-specific thymine DNA glycosylase (Homo sapiens) (UniProt Q13569)
Sequence (Q13569 whole entry): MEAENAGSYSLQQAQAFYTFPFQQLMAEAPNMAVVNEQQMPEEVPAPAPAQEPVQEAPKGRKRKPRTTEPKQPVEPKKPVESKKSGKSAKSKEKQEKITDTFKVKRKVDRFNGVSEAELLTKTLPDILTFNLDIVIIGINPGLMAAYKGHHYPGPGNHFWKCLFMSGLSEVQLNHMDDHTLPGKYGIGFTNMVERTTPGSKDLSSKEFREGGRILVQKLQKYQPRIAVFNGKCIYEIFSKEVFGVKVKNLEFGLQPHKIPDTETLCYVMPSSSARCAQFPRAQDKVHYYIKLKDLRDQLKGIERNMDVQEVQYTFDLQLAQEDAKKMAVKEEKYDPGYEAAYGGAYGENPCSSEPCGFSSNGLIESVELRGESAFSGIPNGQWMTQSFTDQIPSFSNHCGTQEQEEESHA
Conditions: Compound Concentration 10.0 uM, Hit No
Description: Inhibition of TDG by quantifying inhibition of TDG-mediated cleavage and dissociation of quenched duplex DNA oligonucleotides, measured as fluorescence at 594 nm. To generate a functional strand incision and increase turn-over this assay is coupled to APE1.
Class rule met: inhibition at least 30%. Class rule not met: inhibition below 30%.

Reference set, count: 2
Compound	Class label
C[C@]1(O)C[C@@H](c2nc(-c3ccc4ccc(-c5ccccc5)nc4c3)c3c(N)nccn32)C1	rule met
CN1CCN(Cc2ccc(-c3cccc(C(=O)Nc4ccccc4CC(=O)O)c3)cc2)CC1	rule not met

Please turn your attention to the following entry.
Exercise: Reported inhibition at or above 30%? Clc1cccc(-n2nnnc2NCc2ccccc2Oc2ccccn2)c1Cl
Solution: rule not met

---

Target: G/T mismatch-specific thymine DNA glycosylase (Homo sapiens) (UniProt Q13569);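 also: human TDG cleavage of quenched duplex DNA oligonucleotides coupled to APE1, strand release read as fluorescence at 594 nm, inhibition of TDG activity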
Settings: Compound Concentration 10.0 uM, Hit No
// inhibition lookup, one value per entry
Give the figure together with its unit, number first.

See these solved cases before continuing.
Compound	Assay endpoint	Reported measurement
CN1CCN(C(=O)C(C)(C)c2ccc(C(=O)Nc3cn4cc(-c5cc(C(C)(C)C)cc(C(C)(C)C)c5)ccc4n3)cc2)CC1	inhibition	15.4%
COC1CCN(c2cccc(-c3cc(NC(C)=O)nc(-n4nc(C)cc4C)n3)n2)CC1	inhibition	-3.39%
O=C1NCN(c2ccccc2)C12CCN(CCCOc1ccc(F)cc1)CC2	inhibition	13.9%
Cc1cc(C)c(N)c(C#Cc2cccc(F)c2)n1	inhibition	17.2%
COc1cc(OC)c(NC(=O)c2ccc(Cc3cc4c(cc3C)C(C)(C)CCC4(C)C)o2)c(OC)c1	inhibition	1.84%
Cc1c(C(=O)O)cc(-c2ccc(C3CCNCC3)cc2)c2ccc(-c3ccc(C(F)(F)F)cc3)cc12	inhibition	44.3%
O=C(O)c1ccnc(N2CC(O)(c3ccc(OCc4c(-c5c(Cl)cccc5Cl)noc4C4CC4)cc3Cl)C2)c1	inhibition	97.2%
Cc1cnc(-c2cc(Cl)ccc2F)cc1-n1c(=O)n(CC(N)=O)c2cnccc21	inhibition	43.1%

// recorded inhibition for Cc1ccc(O)c([C@H](CCN(C(C)C)C(C)C)c2ccccc2)c1 : 2.93%

// recorded inhibition for Cc1cc(OCCCS(C)(=O)=O)cc(C)c1-c1cccc(COc2ccc3c(c2)OC[C@H]3CC(=O)O)c1 : 44.4%

// recorded inhibition for Cc1ccc(-c2ccc(F)cc2COc2ccc(CCC(=O)O)cc2)cc1 : 27.6%

// recorded inhibition for CO[C@@H](C)c1c(Nc2ccc([C@H](N(C)C(=O)C3CCS(=O)(=O)CC3)C(F)(F)F)cc2)cnc2cc(Cl)nn12 : 48.6%

---

Biological target: N-glycosylase/DNA lyase (Homo sapiens);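 also: OGG1 cleavage of a quenched duplex DNA oligonucleotide, coupled to APE1 for strand incision, read as fluorescence at 594 nm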
Conditions: Compound Concentration 10.0 uM, Hit No
Description: Inhibition of OGG1 by quantifying inhibition of OGG1-mediated cleavage and dissociation of quenched duplex DNA oligonucleotides, measured as fluorescence at 594 nm. To generate a functional strand incision and increase turn-over this assay is coupled to APE1.
// inhibition lookup, one value per entry
Give just the number in %; leave the unit off.

See these solved cases before continuing.
Molecule	Reported measurement
COCCn1c(C)c(C)s/c1=N\C(=O)C1C(C)(C)C1(C)C	5.33
COC(=O)[C@H](CCCN=C(N)N)NC(=O)CCCc1c(-c2ccccc2)[nH]c2c(F)cc(F)cc12	-3.54
O=C1O[C@]2(CC[C@H](C(=O)Nc3ccn(-c4ccccc4F)n3)CC2)c2cnccc21	-9.12
CSc1ccc(C(=O)N[C@@H]2CCCC[C@@H]2NC(=O)CNC(=O)c2cc(C(F)(F)F)ccc2NC(=O)NC(C)C)cc1	-0.224
CCC1(C2=NCCN2)Cc2ccccc2O1 (stereo not given)	-0.183
CCn1c(CNC(=O)c2ncc(C)nc2N)[n+](CC)c2ccc(C(=O)N(C)CCN(C)C)cc21	14.2

// recorded inhibition for CCCCCCCCc1ccc(CCC(N)(CO)CO)cc1 : -9.6

// recorded inhibition for NS(=O)(=O)c1cc(NC(=O)C2(c3ccccc3Cl)CC2)ccc1Oc1cccc(Cl)c1 : 21.8

// recorded inhibition for CC[C@@H](C)Nc1nc(C)nc2c(-c3ccc(OC)nc3C)c(C)nn12 : -1.59

// recorded inhibition for CO[C@H]1/C=C/O[C@@]2(C)Oc3c(C)c(O)c4c(O)c(c(/C=N/N5CCN(C)CC5)c(O)c4c3C2=O)NC(=O)/C(C)=C\C=C\[C@H](C)[C@H](O)[C@@H](C)[C@@H](O)[C@@H](C)[C@H](OC(C)=O)[C@@H]1C : 23.7

// recorded inhibition for CN1[C@@H](CC(=O)c2ccccc2)CCC[C@H]1C[C@H](O)c1ccccc1 : -6.7

// recorded inhibition for CC[C@@H](Nc1c(C#N)c(-c2ccc(-c3cccc(C)c3F)cc2)nc2cnccc12)C(=O)O : 31.6

// recorded inhibition for CN1CCN(c2ccc(/C=C(\C#N)c3ccccc3Br)cc2)CC1 : 25.6

// recorded inhibition for CC(=O)Nc1c(F)cc(C(=O)N[C@H]2CC[C@H](O)CC2)cc1O[C@@H](C)c1ccccc1 : 12.6

// recorded inhibition for CN1CCN(c2ccnc(NCCc3ccccc3)n2)CC1 : 9.82
